Where do the numbers come from? From patent US20130011375A1.

Study system: T1, HCV NS5 peptide on HLA-A*02:01 (human)
T1 peptide: VLTDFKTWL
Test name: cytokine release

{"Binder": "I8A4 (TCR, V domains shown) Valpha: LAKTTQPPSMEAYEGQEVNVSCSHTNIATSEYIYWYRQVPHQGPQFIIQGYKDYVVNEVASLFISADRKLSTLSLPWVSLRDAAVYYCIVTDMETGGYKVVFGSGTRLLVSP Vbeta: EAAVTQSPRNKVAVTGGKVTLSCNQTNNHNNMYWYRQDTGHGLRLIHYSYGAGSTEKGDIPDGYKASRPSQENFSLILELATPSQTSVYFCASASTGASSYEQYFGPGTRLTVL", "binding result": "no recognition"}
{"Binder": "TCR-69 (TCR, V domains shown) Valpha: LAKTTQPPSMEAYEGQEVNVSCSHTNIATSEYIYWYRQVPHQGPQFIIQGYKDYVVNEVASLFISADRKLSTLSLPWVSLRDAAVYYCIVTDLGITGNTGKLIFGLGTTLQVQP Vbeta: EAAVTQSPRNKVAVTGGKVTLSCNQTNNHNNMYWYRQDTGHGLRLIHYSYGAGSTEKGDIPDGYKASRPSQENFSLILELATPSQTSVYFCASGDEGYNSPLYFAAGTRLTVT", "binding result": "recognises"}
{"Binder": "I8H4 (TCR, V domains shown) Valpha: AQKVTQTQTSISVVEKTTVTMDCVYETRDSSYFLFWYKQTASGEIVFLIRQDSYKKENATVGHYSLNFQKPKSSIGLIITATQIEDSAVYFCAMREITGNTGKLIFGLGTTLQVQP Vbeta: EAAVTQSPRNKVTVTGGNVTLSCRQTNSHNYMYWYRQDTGHGLRLIHYSYGAGNLRIGDVPDGYKATRTTQEDFFLLLELASPSQTSLYFCASSDALGGEDAEQFFGPGTRLTVL", "binding result": "no recognition"}
{"Binder": "TCR-19 (TCR, V domains shown) Valpha: GEKVEQHQSTLSVREGDSAVINCTYTDTASSYFPWYKQEAGKSLHFVIDIRSNVDRKQSQRLTVLLDKKAKRFSLHITATQPEDSAIYFCAASLITGNTGKLIFGLGTTLQVQP Vbeta: GGIITQTPKFLIGQEGQKLTLKCQQNFNHDTMYWYRQDSGKGLRLIYYSITENDLQKGDLSEGYDASREKKSSFSLTVTSAQKNEMAVFLCASSLTANTEVFFGKGTRLTVV", "binding result": "recognises"}
